target: SHP2-C SH2; test: SH2 binding enrichment of the phosphorylated peptide, bacterial display (enrichment ratio); higher = better substrate or ligand; peptides without Tyr show the background;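 note: peptide library displayed on the E. coli surface as eCPX fusions, selected cells deep-sequenced, score is each peptide's frequency after selection divided by its frequency in the input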
OBSERVABLE: SH2 binding enrichment

A: AVLSLYASGCT [ACTA2_Y145_R149C]
B: CTTIHYNYMCI [TP53_Y234_N239I]
Request: Two entries are listed, A and B . Which one carries the higher SH2 binding enrichment? In your reply, give the label of the chosen option.
Result: B

====

Entries annotated with measured phosphorylation enrichment
tested on: AncSZ; test: phosphorylation enrichment, bacterial display (enrichment ratio); higher = better substrate or ligand; peptides without Tyr show the background
# output: bare number, no unit

Some solved entries appear below for comparison.
SEQUENCE_RECORD	SYSTEM_NAME	OBSERVABLE	ASSAY_RESULT
CTTIHYNYMCI [TP53_Y234_N239I]	AncSZ	phosphorylation enrichment	0.946
HFGCVYFGTLL [MET_Y1093_H1094Y_YF]	AncSZ	phosphorylation enrichment	1.77
EEKKKYFDAKI [CASP5_Y103_T106A_YF]	AncSZ	phosphorylation enrichment	0.798
HYPDVYAREQL [ALX3_Y181]	AncSZ	phosphorylation enrichment	0.481
MAALSYVSEIG [BPIFB2_Y36_K31M]	AncSZ	phosphorylation enrichment	0.642

Request: // returns reported phosphorylation enrichment for input KSEKVYTRHGV [FLOT1_Y56]
Result: 0.502

Request: Record: AEDKPYAELWT [MPI_Y46_M51T]
Result: 1.17

====

target: Fes (UniProt P07332); experiment: phosphorylation enrichment, bacterial display (enrichment ratio); higher = better substrate or ligand; peptides without Tyr show the background
Sequence (P07332 whole entry, looked up): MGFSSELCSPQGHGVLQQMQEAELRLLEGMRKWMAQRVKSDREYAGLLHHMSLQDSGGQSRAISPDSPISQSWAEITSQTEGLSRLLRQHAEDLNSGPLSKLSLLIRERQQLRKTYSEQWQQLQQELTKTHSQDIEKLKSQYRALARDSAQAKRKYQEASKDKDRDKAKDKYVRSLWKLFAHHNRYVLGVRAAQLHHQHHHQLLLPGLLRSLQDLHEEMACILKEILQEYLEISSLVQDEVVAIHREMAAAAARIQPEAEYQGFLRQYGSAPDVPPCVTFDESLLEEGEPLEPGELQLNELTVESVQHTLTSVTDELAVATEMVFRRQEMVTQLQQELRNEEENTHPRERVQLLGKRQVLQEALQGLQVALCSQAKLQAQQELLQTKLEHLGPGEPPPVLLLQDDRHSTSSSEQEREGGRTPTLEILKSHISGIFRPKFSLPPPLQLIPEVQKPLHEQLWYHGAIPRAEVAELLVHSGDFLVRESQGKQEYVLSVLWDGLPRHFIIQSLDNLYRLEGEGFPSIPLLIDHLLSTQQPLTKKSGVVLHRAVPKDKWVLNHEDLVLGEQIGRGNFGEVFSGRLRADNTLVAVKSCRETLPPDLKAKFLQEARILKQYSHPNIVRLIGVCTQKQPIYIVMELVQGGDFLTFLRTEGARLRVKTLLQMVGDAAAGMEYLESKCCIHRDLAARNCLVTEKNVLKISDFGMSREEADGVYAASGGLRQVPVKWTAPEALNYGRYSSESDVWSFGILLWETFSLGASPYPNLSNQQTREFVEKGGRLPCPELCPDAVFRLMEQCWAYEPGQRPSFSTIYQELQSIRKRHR
Entries annotated with measured phosphorylation enrichment
# output: bare number, no unit

SEQUENCE_RECORD	phosphorylation enrichment
LKRCQYVTEKV [ALDOA_Y204]	1.75
KILPEYLSNWT [AIFM1_Y347]	0.915
RIGRKYKKVRF [F8_Y442]	0.341
WSFNLYDINKD [KCNIP3_Y174_A170S]	1.45

Request: Param readout = phosphorylation enrichment; param system = Fes (UniProt P07332); param query = RQGKDYVGAIP [KDR_Y951] ; response: value
Result: 0.832

Request: Record: NYCPGYNNFYN [USH2A_Y467_R464C]
Result: 1.06

Request: Record: GEKKAYVRLAP [RPL23A_Y137]
Result: 0.606

====

biological target: Hck (UniProt P08631); assay: phosphorylation enrichment, bacterial display (enrichment ratio); higher = better substrate or ligand; peptides without Tyr show the background
Sequence (P08631 whole entry, looked up): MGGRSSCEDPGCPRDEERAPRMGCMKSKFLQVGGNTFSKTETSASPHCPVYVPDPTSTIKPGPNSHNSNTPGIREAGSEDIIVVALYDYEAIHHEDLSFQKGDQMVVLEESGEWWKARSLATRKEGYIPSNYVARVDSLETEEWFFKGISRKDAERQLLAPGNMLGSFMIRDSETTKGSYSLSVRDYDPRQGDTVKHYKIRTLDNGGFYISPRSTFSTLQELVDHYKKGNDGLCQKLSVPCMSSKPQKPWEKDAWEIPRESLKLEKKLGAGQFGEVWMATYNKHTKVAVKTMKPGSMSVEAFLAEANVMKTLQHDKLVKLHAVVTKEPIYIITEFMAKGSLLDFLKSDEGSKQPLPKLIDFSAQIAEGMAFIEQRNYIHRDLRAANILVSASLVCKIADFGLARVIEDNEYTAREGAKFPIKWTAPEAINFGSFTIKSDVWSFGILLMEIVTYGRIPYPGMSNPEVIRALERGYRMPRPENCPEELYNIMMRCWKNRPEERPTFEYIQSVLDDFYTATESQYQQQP
Entries annotated with measured phosphorylation enrichment
# output: bare number, no unit

Some solved entries appear below for comparison.
SEQUENCE_RECORD	ASSAY_RESULT
IYHLSYIHNCE [PDE6B_Y227_L228I]	1.81
EICTQYEAMAS [GFAP_Y242_R239C]	0.708
GCRSKYVGLWG [KCNQ1_Y184]	0.363
SIKNKYVTALY [KCNH2_Y611_D609N]	0.47
FSGKAYADEEQ [CRIM1_Y826_R831Q]	0.565
MRALIYNSSTA [PLEKHA7_Y243]	0.647

Request: // returns reported phosphorylation enrichment for input AHEALYLEADL [CENPF_Y1920_E1915A]
Result: 0.736

Request: Record: CTHDLYMFMRE [FGFR3_Y724_I726F]
Result: 1.06

Request: Record: LEDDVYRKTCT [XPA_Y257_M256V]
Result: 1.17

Request: Record: VPLATYMRIFK [RPL21_Y30_YF]
Result: 0.537

Request: Record: EVLKNYNQQKD [GOLGA4_Y1551]
Result: 0.452

====

target: Jak2 (UniProt O60674); assay: phosphorylation enrichment, bacterial display (enrichment ratio); higher = better substrate or ligand; peptides without Tyr show the background
Sequence (O60674 whole entry, looked up): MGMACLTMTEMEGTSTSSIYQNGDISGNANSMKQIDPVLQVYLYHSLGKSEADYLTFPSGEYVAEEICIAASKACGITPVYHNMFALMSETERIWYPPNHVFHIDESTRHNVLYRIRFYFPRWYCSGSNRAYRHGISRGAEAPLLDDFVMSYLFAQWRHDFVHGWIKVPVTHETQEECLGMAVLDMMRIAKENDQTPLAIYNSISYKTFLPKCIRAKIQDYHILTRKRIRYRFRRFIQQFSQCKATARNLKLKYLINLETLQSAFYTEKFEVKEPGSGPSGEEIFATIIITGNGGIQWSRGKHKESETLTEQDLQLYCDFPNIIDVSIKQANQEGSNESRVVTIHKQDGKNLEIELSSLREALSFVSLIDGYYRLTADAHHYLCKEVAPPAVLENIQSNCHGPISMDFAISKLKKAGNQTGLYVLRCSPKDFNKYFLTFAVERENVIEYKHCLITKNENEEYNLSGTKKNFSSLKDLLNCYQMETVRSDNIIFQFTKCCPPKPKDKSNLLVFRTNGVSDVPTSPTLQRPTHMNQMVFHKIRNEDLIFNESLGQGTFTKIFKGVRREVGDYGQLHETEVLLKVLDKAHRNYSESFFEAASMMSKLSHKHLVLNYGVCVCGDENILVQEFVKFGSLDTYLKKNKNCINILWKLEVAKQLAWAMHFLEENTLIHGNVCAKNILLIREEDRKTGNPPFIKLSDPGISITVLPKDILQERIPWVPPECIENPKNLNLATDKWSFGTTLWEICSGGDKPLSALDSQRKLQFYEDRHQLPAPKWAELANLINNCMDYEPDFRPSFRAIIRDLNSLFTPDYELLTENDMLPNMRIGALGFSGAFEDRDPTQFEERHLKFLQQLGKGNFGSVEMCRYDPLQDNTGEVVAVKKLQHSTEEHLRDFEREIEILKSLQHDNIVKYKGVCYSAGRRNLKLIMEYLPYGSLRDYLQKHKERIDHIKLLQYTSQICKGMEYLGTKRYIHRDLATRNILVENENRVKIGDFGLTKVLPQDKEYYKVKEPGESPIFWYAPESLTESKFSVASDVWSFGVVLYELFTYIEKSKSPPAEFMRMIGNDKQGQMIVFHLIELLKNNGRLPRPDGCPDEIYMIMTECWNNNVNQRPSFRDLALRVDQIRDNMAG
Entries annotated with measured phosphorylation enrichment
# output: bare number, no unit

Some solved entries appear below for comparison.
SEQUENCE_RECORD	phosphorylation enrichment
STTIHYNYMCN [TP53_Y234_C229S]	0.792
RAYSWYQHQRA [NDST1_Y714]	1.06
EQQNMYRLKVL [ABCC6_Y372]	0.561
FGSVMYEFVGK [SLC18A1_Y251]	1.38
KTVQDYLEKFF [MMP8_Y36_YF]	0.986

Request: // returns reported phosphorylation enrichment for input VGTKQYMAPEV [ACVRL1_Y375_R374Q]
Result: 0.738

Request: Record: NFFEFYVDDPP [GCHFR_Y48_YF]
Result: 1.12

Request: Record: DDFNLYINVKL [MTHFD1_Y52_S49F]
Result: 1.67

Request: Record: SQSPHYFRSGR [GPATCH8_Y1038]
Result: 0.687

Request: Record: GGCQEYTGAPY [NAXD_Y85]
Result: 0.83

Request: Record: NNHGNYIVRLG [ETFDH_Y172]
Result: 0.702

====

target: Hck (UniProt P08631); test: phosphorylation enrichment, bacterial display (enrichment ratio); higher = better substrate or ligand; peptides without Tyr show the background
Entries annotated with measured phosphorylation enrichment
# output: bare number, no unit

SEQUENCE_RECORD	SYSTEM_NAME	phosphorylation enrichment
KLGDVYVNVAF [PGK1_Y161_D164V]	Hck (UniProt P08631)	0.706

Request: // returns reported phosphorylation enrichment for input LDLSFYPTSSS [EMD_Y182_YF]
Result: 0.89

Request: Record: VGNPAYRSFSN [IL4R_Y497_A492V]
Result: 0.329

Request: Record: NFFEFYVDDPP [GCHFR_Y48_YF]
Result: 0.499

Request: Record: RLLVVYHWTQR [HBD_Y36_P37H]
Result: 0.85

Request: Record: TGDFGYRTPGF [TNS2_Y668_A670T_YF]
Result: 0.401

Request: Record: SSYDTYHLSRE [KIR3DL2_Y253_I252T]
Result: 4.59

Request: Record: FDEFRYRSFIK [CFTR_Y517_V520F_YF]
Result: 0.511

Request: Record: VAVVQYSGTGQ [COL6A1_Y878]
Result: 0.438

Request: Record: `ANNEYYFQVCA`
Result: 0.706

Request: Record: THEVRYISAGQ [SLCO4A1_Y77_V78I]
Result: 0.416

Request: Record: EFTAGYNVKFD [GPX4_Y123_A120T]
Result: 0.435

Request: Record: FIPSNYVAEDR [FRK_Y104_YF]
Result: 0.411

Request: Record: GFSDPYVKASL [SYT3_Y470]
Result: 0.38

====

molecular target: Hck (UniProt P08631); test: phosphorylation enrichment, bacterial display (enrichment ratio); higher = better substrate or ligand; peptides without Tyr show the background
Entries annotated with measured phosphorylation enrichment
# output: bare number, no unit

Some solved entries appear below for comparison.
SEQUENCE_RECORD	ASSAY_RESULT
SQQTYYRVSNM [ABCD1_Y181]	3.23
ECKLLYSQKEG [PTPN11_Y263_R265Q]	0.682
GEVKAYGAGLL [TH_Y419]	0.404
LHRHAYPEQRQ [DPPA2_Y127]	0.704
IDDNEYAYLKA [HNF4A_Y286]	0.707
VFFGSYSRPFG [NKAP_Y104_YF]	0.479

Request: // returns reported phosphorylation enrichment for input PAIYTYDEYKK [COL8A2_Y648_T645I]
Result: 8.13

Request: Record: GTHCHYKAPIV [FZD9_Y569_T573I]
Result: 0.544

Request: Record: CTTFHYNFMCN [TP53_Y234_I232F_YF]
Result: 0.479

====

test system: Fer (mouse); assay: phosphorylation enrichment, bacterial display (enrichment ratio); higher = better substrate or ligand; peptides without Tyr show the background
OBSERVABLE: phosphorylation enrichment
# output: bare number, no unit

Some solved entries appear below for comparison.
SEQUENCE_RECORD	phosphorylation enrichment
FGSVMYEFVGK [SLC18A1_Y251]	15.1
SLFPGYNFRFA [P2RX7_Y291_YF]	0.511
PRLMLYNPTTF [EGFR_Y270_P266R_YF]	0.848
MAALSYVSEIG [BPIFB2_Y36_K31M]	0.394
KTGNIYRTEFG [MRPL3_Y265_M261T_YF]	0.35
WSFNLYDINKD [KCNIP3_Y174_A170S]	1.01
PEACDYGLGGG [GSTO1_Y239]	0.656
PGGKIYISPLK [RB1_Y805_N803K]	0.441

Request: // returns reported phosphorylation enrichment for input NSGFFYKTAEE [CCT6B_Y250]
Result: 0.486

Request: Record: IGNGFYFRVFS [MYBPC3_Y1136_YF]
Result: 0.519

Request: Record: `AKIDGYITSFR`
Result: 0.468

Request: Record: YSMGCYEIYLG [HMGCL_Y198_S201Y]
Result: 5.57

Request: Record: TCFDKYTGSTY [FN1_Y101_N104S]
Result: 0.418

Request: Record: NQILPYIKELV [PPP2R1B_Y341]
Result: 0.528

Request: Record: IKKLIYVYLVI [JAGN1_Y42_H44Y]
Result: 0.323

Request: Record: RIGRKYKKVRF [F8_Y442]
Result: 0.298

Request: Record: TVINKYQGKLF [HGD_Y249]
Result: 0.372

Request: Record: KFRREYILSLE [GPC3_Y299_W296R_YF]
Result: 0.442
